- experimental-system: BCL6 (Homo sapiens, UniProt P41182)
- Construct: Endogenous BCL6 was tagged with the 11-amino acid SmBiT through CRISPR/Cas9 gene editing; endogenous in cells; host or cells: Su-DHL-4 cells, CRISPR/Cas9 knock-in single cell clone
- test: HiBiT cellular degradation assay (Promega) in Su-DHL-4 cells
- Type: cell-based
- details: concentration to reach 50% degradation; endogenous BCL6 tagged with SmBiT in Su-DHL-4 cells; 24 hr of compound treatment; relative to DMSO control
outcome-measure: DC50 (nM)
Only the number, expressed in nM, is required.

Worked examples follow.
# compound, outcome-measure, unit-spec, numeric-value
measured = [
    ("CNC(=O)COc1cc2cc3cc(c2n(C)c1=O)OCCNC1CN(CC(C)C1(F)F)c1ncc(Cl)c(n1)N3 (centres unmarked)", "DC50", "nM", 0.36),
    ("C[C@H]1C[C@@H]2CN(C1)c1ncc(Cl)c(n1)Nc1cc(c3c(c1)n(CCC(C)(C)O)c(=O)n3C)OCCN2", "DC50", "nM", 2.4),
    ("CNC(=O)COc1cc2cc3cc(c2n(C)c1=O)OCCC[C@@H]1CN(C[C@H](C)C1(F)F)c1ncc(Cl)c(n1)N3", "DC50", "nM", 150),
    ("C[C@@H]1CN2C[C@H](NCCOc3cc(cc4c3n(C)c(=O)n4CCC(C)(C)O)Nc3ccnc2n3)C1(F)F", "DC50", "nM", 96.7),
    ("CNC(=O)COc1cc2cc3cc(c2n(C)c1=O)OCCO[C@@H]1C[C@H](C)CN(C1)c1ncc(Cl)c(n1)N3", "DC50", "nM", 0.61),
    ("C[C@@H]1CN2C[C@H](NCCOc3cc(cc4c3n(C)c(=O)n4CCC(C)(O)CO)Nc3nc2ncc3Cl)C1(F)F (some centres unmarked)", "DC50", "nM", 3.7),
    ("C[C@@H]1CN2C[C@H](NCCOc3cc(cc4c3n(C)c(=O)n4CC[S@](C)(=N)=O)Nc3nc2ncc3Cl)C1(F)F", "DC50", "nM", 11.3),
    ("C[C@@H]1CN2C[C@H](NCCOc3cc(cc4[nH]c(=O)n(C)c34)Nc3nc2ncc3F)C1(F)F", "DC50", "nM", 14.2),
    ("C[C@H]1C[C@@H]2CN(C1)c1ncc(Cl)c(n1)Nc1cc(c3c(c1)n(CCC(C)(C)O)c(=O)n3C)OCCO2", "DC50", "nM", 2),
    ("CNC(=O)COc1cc2cc3cc(c2n(C)c1=O)OCCC[C@H]1CN(C[C@@H](C)C1(F)F)c1ncc(Cl)c(n1)N3", "DC50", "nM", 0.68),
]

-- ask Return DC50 (reported value) for this compound: `C[C@@H]1CN2C[C@H](CCCOc3cc(cc4[nH]c(=O)c(=O)n(C)c34)Nc3nc2ncc3Cl)C1(F)F`
-- reply 22

-- ask Return DC50 (reported value) for this compound: `C[C@@H]1CN2C[C@H](OCCOc3cc(cc4c3n(C)c(=O)n4CCC(C)(C)O)Nc3nc2ncc3Cl)C1(F)F`
-- reply 1.9

----------
compounds and their reported DC50
- experimental-system: BCL6 (Homo sapiens)
- Construct: Endogenous BCL6 was tagged with the 11-amino acid SmBiT through CRISPR/Cas9 gene editing; endogenous in cells; host or cells: Su-DHL-4 cells, CRISPR/Cas9 knock-in single cell clone
- test: HiBiT cellular degradation assay (Promega) in Su-DHL-4 cells
- Format: cell-based
- details: concentration to reach 50% degradation; endogenous BCL6 tagged with SmBiT in Su-DHL-4 cells; 24 hr of compound treatment; relative to DMSO control
Only the number, expressed in nM, is required.

# compound, unit-spec, DC50
data = [
    ("C[C@@H]1CN2C[C@H](NCCOc3cc(cc4c3n(C)c(=O)n4CCC3(O)COC3)Nc3nc2ncc3Cl)C1(F)F [Compound 45]", "nM", 8.7),
    ("C[C@@H]1C[C@H]2CN(C1)c1ncc(Cl)c(n1)Nc1cc(c3c(c1)n(CCC(C)(C)O)c(=O)n3C)OCCN2 [Compound 17]", "nM", 33),
    ("C[C@@H]1CN2C[C@H](CCCOc3cc(cc4c3n(C)c(=O)c(=O)n4C[C@H]3C[C@@H](O)C3)Nc3nc2ncc3Cl)C1(F)F [Compound 18-2]", "nM", 4.4),
    ("C[C@@H]1CN2C[C@H](NCCOc3cc(cc4c3n(C)c(=O)n4CC[S@@](C)(=N)=O)Nc3nc2ncc3Cl)C1(F)F [Compound 44]", "nM", 18.9),
]

-- ask Return DC50 (reported value) for this compound: CNC(=O)COc1cc2cc3cc(c2n(C)c1=O)OCCOC1CC(C)CN(C1)c1ncc(Cl)c(n1)N3 (stereo not shown) [Compound 2]
-- reply 0.34
